Test system: Streptococcus suis HE06
Experiment: percent growth relative to DMSO control; higher = less growth inhibition
Conditions: 10 µM; incubation time 18 h
Catalogue of percent growth values

Example entries begin here.
1. CCCCCCCCCCCCCCCCOP(=O)([O-])OCC[N+](C)(C)C ... 117%
2. C[C@H](C(N)=O)N1CCCC[C@H]1c1ccc(OCc2cccc(F)c2)cc1 ... 85.5%
3. C[C@H]1COc2c(N3CCN(C)CC3)c(F)cc3c(=O)c(C(=O)O)cn1c23 ... 1.93%
4. FC(F)(F)c1cccc(-c2nc3c(NCc4ccncc4)nccc3[nH]2)c1 ... 90.4%

Field percent growth (entry `CS(=O)(=O)Cc1nc2ccccc2oc1=O` ) reads 67.6%

Field percent growth (entry `CC(C)(C)n1nc(Cc2ccc(F)c(Cl)c2)c2c(N)ncnc21` ) reads 91.5%

Field percent growth (entry `Cc1[nH]c2cc(F)cc(F)c2c(=O)c1-c1ccc(Oc2ccc(OC(F)(F)F)cc2)cc1` ) reads 96.3%

Field percent growth (entry `O=C(NCc1nnc2n1CCCCC2)c1ccc(-c2ccc(F)cc2)o1` ) reads 82.7%

Field percent growth (entry `O=C(Nc1cccc(Cl)c1)c1cnc(N2CCN(c3ccncc3)CC2)c(Cl)c1` ) reads 62%

Field percent growth (entry `CC(C)(C)OC(=O)N1CCC(Cn2nc(-c3cnc4ccccc4c3)c3c(N)ncnc32)CC1` ) reads 88.2%

Field percent growth (entry CNC(=O)C1Cc2c([nH]c3cc(Cl)ccc23)C2(CCN(CCc3ccccc3)CC2)N1 (configuration not stated) ) reads 95.5%

Field percent growth (entry `c1ccc2c(c1)CN(CC1CC1)CC1(CCN(Cc3c[nH]c4cnccc34)CC1)O2` ) reads 85.1%

Field percent growth (entry `FC(F)(F)c1ccc(N(c2cccnc2)C2CCN(c3ccc(C(F)(F)F)cn3)CC2)cc1` ) reads 67.9%

Field percent growth (entry CCc1nc2ccccc2n1CC(O)COc1cc(C)ccc1Cl (configuration not stated) ) reads 65.7%

Field percent growth (entry `O=C(Nc1ccccc1-c1nc2c(C(=O)O)cccc2o1)c1ccccc1` ) reads 68.4%

Field percent growth (entry `COC(=O)c1c(NC(=O)c2cc3ccccc3oc2=O)sc2c1CCN(Cc1ccccc1)C2` ) reads 84.2%

Field percent growth (entry `O=C(Nc1ccnc(-c2cccnc2)n1)c1cc(C(F)(F)F)cc(C(F)(F)F)c1` ) reads 78.2%

Field percent growth (entry `c1coc(CNc2nc(N3CCCCC3)nc3ccccc23)c1` ) reads 78%

Field percent growth (entry `CCN(CC)S(=O)(=O)c1ccc(Cl)c(C(=O)Nc2ccc3nc(C)sc3c2)c1` ) reads 83.9%
